Provide the reported half-life at 2 µM of each item.
- Assay details: Metabolic stability in human plasma assessed as half life at 2 uM incubated upto 120 mins by LC-MS/MS analysis
- Format: ADME, cell-free

Give half-life at 2 µM for each of the items listed below.
1. CCC(CC)O[C@@H]1C=C(C(=O)O)C[C@H](NCc2ccc(OCc3cccc(B(O)O)c3)cc2C)[C@H]1NC(C)=O
2. CCC(CC)O[C@@H]1C=C(C(=O)O)C[C@H](NCc2ccc(OCc3cccc(B(O)O)c3)cc2Cl)[C@H]1NC(C)=O

["> 4.82 h", "> 4.82 h"]

###

- Assay details: Inhibition of neuraminidase in Influenza A virus A/Babol/36/2005 H3N2 using MUNANA as substrate incubated for 40 mins by […] based assay
I'd appreciate it if you could supply IC50 values for the items below.

• CCC(CC)O[C@@H]1C=C(C(=O)O)C[C@H](NCc2ccccc2OCc2cccc(B(O)O)c2)[C@H]1NC(C)=O = 5080 nM
• CCC(CC)O[C@@H]1C=C(C(=O)O)C[C@H](NCc2c(C)cc(OCc3cccc(B(O)O)c3)cc2C)[C@H]1NC(C)=O = 650 nM
• CCC(CC)O[C@@H]1C=C(C(=O)O)C[C@H](NCc2ccc(OCc3ccc(B(O)O)cc3)cc2C)[C@H]1NC(C)=O = 110 nM

Next item in the queue.
IC50 for `CCC(CC)O[C@@H]1C=C(C(=O)O)C[C@H](NCc2cccc(OCc3ccccc3B(O)O)c2)[C@H]1NC(C)=O` ?
7880 nM
